- Tested on: PDGFR
- PROTOCOL SUMMARY: Rat A10 cell proliferation assay
- Assay type: cell-based
- CONDITION: Rat A10 cells, 1% FBS, 10 ng/mL recombinant rat PDGF-BB, 68 hours with compound, CellTiter-Glo luminescence
REPORTED METRIC: IC50 (nM)

* C[C@@H]1CCC[C@H](C)N1CCNC(=O)c1ccc(F)c(NC(=O)c2cnc3cc(-c4cccnc4)ccn23)c1 | 27
* Cc1ncc(C(=O)NCCN2CCCC2(C)C)cc1NC(=O)c1cnn2cc(-c3ccc(C(=O)NC(C)(C)CO)c(F)c3)ccc12 | 182
* CN(C)CCCOc1ccc(-c2ccn3c(C(=O)Nc4cc(C(=O)NCc5ccc(F)c(F)c5)ccc4F)cnc3c2)cn1 | 11
* Cc1ncc(C(=O)NCc2ccccc2N2CCN(C)CC2)cc1NC(=O)c1cnc2cc(-c3ccnn3C)ccn12 | 74
